Every entry's value here was drawn from ChEMBL document CHEMBL4145665.

system under test: Free fatty acid receptor 1 (Homo sapiens, UniProt O14842)
Sequence (O14842 whole entry): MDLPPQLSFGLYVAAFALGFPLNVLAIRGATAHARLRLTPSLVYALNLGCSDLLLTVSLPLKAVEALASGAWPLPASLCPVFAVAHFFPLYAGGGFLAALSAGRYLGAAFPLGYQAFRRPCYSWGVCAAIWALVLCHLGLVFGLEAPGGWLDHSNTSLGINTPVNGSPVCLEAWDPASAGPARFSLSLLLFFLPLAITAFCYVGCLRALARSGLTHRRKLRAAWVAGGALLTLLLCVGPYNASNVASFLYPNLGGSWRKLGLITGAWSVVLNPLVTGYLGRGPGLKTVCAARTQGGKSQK
test method notes: Agonist activity at recombinant human GPR40 expressed in HEK293 cells assessed as increase in IP1 accumulation measured after 60 mins in presence of 100% human serum by HTRF assay
Assay type: functional, cell-based
measured metric: pEC50
// pEC50: -log10(molar conc.)

Observe how each entry below is paired with its result.
compound: COc1cc(-c2ccc(C3CCc4ccc([C@H](C5CC5)[C@H](C)C(=O)[O-])cc4O3)nc2)c(F)cn1.[Na+] (stereo in doubt; 29)
pEC50: 6.61
//
compound: COc1cc(-c2cnc(C3CCc4ccc([C@H](C5CC5)[C@H](C)C(=O)O)cc4O3)c(F)c2)c(F)cn1 (stereo in doubt; 30)
pEC50: 6.42
//
compound: COc1cc(-c2ccc(C3CCc4ccc([C@H](C5CC5)[C@H](C)C(=O)[O-])cc4O3)nc2)c(F)cn1.[Na+] (stereo in doubt; 28)
pEC50: 5.99
//
compound: COc1cc(-c2ccc(C3CCc4ccc([C@H](C5CC5)[C@H](C)C(=O)[O-])cc4O3)c(F)c2)c(F)cn1.[Na+] (stereo in doubt; 26)
pEC50: 7.44

// COc1cc(-c2cnc(C3CCc4ccc([C@H](C5CC5)[C@H](C)C(=O)O)cc4O3)c(F)c2)c(F)cn1 (stereo in doubt; 31) : pEC50 value = 6.12

What the record says about COc1cc(-c2ccc(C3CCc4ccc([C@@H](CC(=O)O)C5CC5)cc4O3)cc2)c(F)cn1 (some centres undefined) : pEC50 is 5.92

The reported pEC50 of the compound COc1cc(-c2ccc(C3CCc4ccc([C@H](C5CC5)[C@H](C)C(=O)[O-])cc4O3)cc2)c(F)cn1.[Na+] (stereo in doubt; 20) was 7.18

In plain terms, COc1ccc(F)c(-c2ccc(C3CCc4ccc([C@H](C5CC5)[C@H](C)C(=O)O)cc4O3)cn2)c1 (stereo in doubt; 19) has a documented pEC50 of 5.61

Lab note: measured pEC50 of COc1cc(-c2ccc(C3CCc4ccc([C@H](C5CC5)[C@H](C)C(=O)[O-])cc4O3)cc2)ccn1.[Na+] (stereo in doubt; 22) was 6.42

According to the records, this compound O=C(O)C[C@H](c1ccc2c(c1)OC(c1ccc(-c3ccccc3)cc1)CC2)C1CC1 (single isomer, unassigned) displays pEC50 of 5.26

Please fill in: pEC50 reported for COc1cc(-c2ccc(C3CCc4ccc([C@H](C5CC5)[C@H](C)C(=O)[O-])cc4O3)cc2)ccn1.[Na+] (stereo in doubt; 23) = 6.28

Measured pEC50, COc1cc(-c2ccc(C3CCc4ccc([C@H](C5CC5)[C@H](C)C(=O)O)cc4O3)nc2)ccn1 (stereo in doubt; 33) : 6.34

Short answer for COc1cc(-c2ccc(C3CCc4ccc([C@@H](CC(=O)O)C5CC5)cc4O3)cc2)ccn1 (mixture of isomers) : pEC50 was 5.59

----------
test method notes: Volume of distribution at steady state in Beagle dog at 1 mg/kg, iv or 2 mg/kg, po administered as single dose
Format: ADME, organism-based, Canis lupus familiaris
test settings: in vivo, read-out: Vdss
measured metric: Vd (L/kg)
The answer is to be given in L/kg; state only the numeric part.

So for `COc1cc(-c2ccc([C@@H]3CCc4ccc([C@H](C5CC5)[C@H](C)C(=O)[O-])cc4O3)c(F)c2)ccn1.[Na+]` , the logged Vd turned out to be 0.45
